target entity: KRAS G12D (Homo sapiens, UniProt P01116, G12D)
Construct: made in house; host or cells: E. coli, e.g. BL21 (DE3)
Sequence (P01116 1-188 isoform P01116-2 G12D): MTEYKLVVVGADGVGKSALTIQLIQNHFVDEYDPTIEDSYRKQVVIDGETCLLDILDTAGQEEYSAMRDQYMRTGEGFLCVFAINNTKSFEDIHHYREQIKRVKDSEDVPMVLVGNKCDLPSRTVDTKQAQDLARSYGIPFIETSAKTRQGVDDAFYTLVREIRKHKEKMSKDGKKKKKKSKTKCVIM
assay method text: HTRF assay of K-Ras G12D interaction with SOS1 (PPI-HTRF)
Format: binding
reported conditions: HTRF, 5 nM KRAS G12D; read-out: PPI-HTRF-5 nM KRAS G12D
Source text: This assay can be also used to assess a selective inhibition or reduction of signaling output of a mutant Ras protein relative to a wildtype, or relative to a different mutant Ras protein. For example, the equilibrium interaction of wildtype Kras or K-Ras mutant (e.g., wildtype or a mutant thereof including those mentioned in Example 4) with SOS1 (e.g., hSOS1) can be assessed as a proxy or an indication for a subject compound's ability to bind and inhibit Ras protein. […]
pIC50: −log10 of the molar value.
In this section we review reported pIC50 values for a set of molecules.

* Cc1nc(C(C)C)nn1C(=O)N1CCOCC12CCN(c1nc(OC[C@@]34CCCN3C[C@H](F)C4)nc3c(F)c(-c4ccc(F)c5sc(N)c(C#N)c45)c(Cl)cc13)C2 (stereo partly drawn) | > 5.30
* Cc1nc(C)n(C(=O)N2CC[C@@]23CCN(c2nc(OC[C@@]45CCCN4C[C@H](F)C5)nc4c(F)c(-c5ccc(F)c6sc(N)c(C#N)c56)c(Cl)cc24)C3)n1 | > 5.30

# input for lookup
Prompt: Which measured pIC50 value corresponds to C[C@H](Oc1nc(N2CC[C@@]3(CCN3C(=O)C3CC3(F)F)C2)c2cc(Cl)c(-c3ccc(F)c4sc(N)c(C#N)c34)c(F)c2n1)[C@@H]1CCCN1C (stereo partly drawn) ?
Completion: > 5.30
